B1: SPACA3 (parent)
chain: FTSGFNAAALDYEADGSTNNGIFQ

Variants of: B1
assay.method.text: protein stability index of a GFP-peptide fusion (GPS, HEK-293T) (PSI 1-6); higher = more stable;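 also: lentivirally expressed fusions sorted by FACS into six bins by GFP to DsRed ratio, PSI derived from sequencing read proportions per bin multiplied by bin number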
condition: c terminus: a fixed tail appended
Please use true whenever protein stability index is not below 2, and false whenever it is.

hey, is protein stability index for this one >= 2? F23L
true

Decide: is the reported value of protein stability index for T2C equal to or greater than 2?
true

Determine whether this variant has protein stability index no lower than 2: T2R
true

Could you verify whether the entry D15C shows protein stability index of no less than 2?
true

Kindly determine if protein stability index recorded for T2G is above or exactly 2.
true

In plain terms: is recorded protein stability index at least 2 for D11Y ?
true

Form field: protein stability index at least 2? Entry: N19K
false

Is it the case that I22C has protein stability index reaching or exceeding 2?
false

Is it the case that Y12G has protein stability index reaching or exceeding 2?
true

Determine whether measured protein stability index meets or exceeds 2 for T2K
true

hey, is protein stability index for this one >= 2? Q24N
false

Textbook exercise: given the entry T2M , state whether its protein stability index is greater than or equal to 2.
true

Confirm if protein stability index reported for the variant T18I is 2 or above.
true

State whether the measured protein stability index reaches 2, counting equality as reaching it, for N6G
false

Decide: is the reported value of protein stability index for G16Q equal to or greater than 2?
false

Decide: protein stability index of E13W >= 2?
true

Hi, just wondering whether N20Y shows protein stability index of 2 or higher.
true

Confirm if protein stability index reported for the variant Y12W is 2 or above.
false

Reported protein stability index at or above 2? F23E
true

API: above_or_equal(metric=protein stability index, cutoff=2) for item A8I
true

protein stability index >= 2 for F5L ?
true

# check: protein stability index of A14H is greater than or equal to 2
true

Quick check, protein stability index >= 2? G16D
true
